Target: human S1P1 receptor (Homo sapiens)
Construct: membranes used
Sequence (P21453 whole entry): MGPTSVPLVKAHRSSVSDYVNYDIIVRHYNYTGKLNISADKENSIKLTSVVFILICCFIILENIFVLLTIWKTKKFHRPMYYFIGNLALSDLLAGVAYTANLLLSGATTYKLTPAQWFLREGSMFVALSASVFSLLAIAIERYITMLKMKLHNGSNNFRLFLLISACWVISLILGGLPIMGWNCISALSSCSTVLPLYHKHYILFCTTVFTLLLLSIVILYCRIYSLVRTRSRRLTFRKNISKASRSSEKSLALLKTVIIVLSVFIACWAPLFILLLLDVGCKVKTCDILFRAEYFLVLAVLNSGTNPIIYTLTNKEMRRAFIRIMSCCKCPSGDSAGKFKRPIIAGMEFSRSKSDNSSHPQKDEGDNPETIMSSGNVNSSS
Assay: GTP γ35S binding assay for S1P1 activity
Conditions: membranes of cells stably expressing the S1P1 receptor; agonist-induced GTP γ35S binding; read-out: EC50 at the S1P1 receptor from GTP γ35S
endpointLabel: EC50 (nM)
# value in nM; strip the unit string

Lab book: EC50 of CCCCCCc1ccc(-c2ccc(CN3CC(C(=O)O)C3)c3ncccc23)cc1 noted as 1550
